# System: 996289-038-R-J1-PDC spheroid viability
# Assay Procedure: Anticancer human tumor 996289-038-R-J1-PDC patient-derived colon adenocarcinoma cell line growth inhibition [PI3K]
# Stated Conditions: second compound 3.16 µM; first compound 1 µM; active compounds read low; spheroids with HUVEC and MSC
Overview of recorded viability, T/C for various molecules

In the examples that follow, each entry is paired with its recorded viability, T/C.
Molecule	viability, T/C
CC(C)NCC(C(=O)N1CCN(c2ncnc3c2C(C)CC3O)CC1)c1ccc(Cl)cc1 (stereo not given) + CC(Nc1ncnc2nc[nH]c12)c1cc2cccc(Cl)c2c(=O)n1-c1ccccc1	94.7%
C#Cc1c(F)ccc2cc(O)cc(-c3ncc4c(N5CC6CCC(C5)N6)nc(OCC56CCCN5CC(F)C6)nc4c3F)c12 (stereo not given) + CC(Nc1ncnc2nc[nH]c12)c1cc2cccc(Cl)c2c(=O)n1-c1ccccc1	42.6%
CC1(C)CCC(CN2CCN(c3ccc(C(=O)NS(=O)(=O)c4ccc(NCC5CCOCC5)c([N+](=O)[O-])c4)c(Oc4cnc5[nH]ccc5c4)c3)CC2)=C(c2ccc(Cl)cc2)C1 + Cc1nc(NC(=O)N2CCCC2C(N)=O)sc1-c1ccnc(C(C)(C)C(F)(F)F)c1	61%
CCCS(=O)(=O)Nc1ccc(F)c(C(=O)c2c[nH]c3ncc(-c4ccc(Cl)cc4)cc23)c1F + Cc1nc(NC(=O)N2CCCC2C(N)=O)sc1-c1ccnc(C(C)(C)C(F)(F)F)c1	54.1%

Moving on to another molecule below.
// query Input CC1(C)CCC(CN2CCN(c3ccc(C(=O)NS(=O)(=O)c4ccc(NCC5CCOCC5)c([N+](=O)[O-])c4)c(Oc4cnc5[nH]ccc5c4)c3)CC2)=C(c2ccc(Cl)cc2)C1 + CC(Nc1ncnc2nc[nH]c12)c1cc2cccc(Cl)c2c(=O)n1-c1ccccc1 , output reported viability, T/C.
// result 107%

* * *

# System: 996289-038-R-J1-PDC spheroid viability
# Assay Procedure: Anticancer human tumor 996289-038-R-J1-PDC cell line growth inhibition [PI3K];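 further: luminescence used as a proxy for viable cell amount; spheroids exposed to compounds for seven days before viability read; percent viability relative to DMSO vehicle control as 100%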
# Stated Conditions: second compound 0.316 µM; first compound 0.1 µM; active compounds read low; spheroids with HUVEC and MSC
Parameter Measured: viability, T/C (%)
Just the number please, in %, no unit attached.

// query Input C=CC(=O)N1CCN(c2nc(=O)n(-c3c(C)ccnc3C(C)C)c3nc(-c4c(O)cccc4F)c(F)cc23)C(C)C1 (stereo not given) + CC(Nc1ncnc2nc[nH]c12)c1cc2cccc(Cl)c2c(=O)n1-c1ccccc1 , output reported viability, T/C.
// result 106

// query Input Cn1nccc1Nc1nccc(-c2ccn(C(CO)c3ccc(Cl)c(F)c3)c(=O)c2)n1 (stereo not given) + COc1c(OCCCN2CCOCC2)ccc2c3n(c(=NC(=O)c4cnc(N)nc4)nc12)CCN3 , output reported viability, T/C.
// result 34.7

// query Input C=CC(=O)N1CCN(c2nc(=O)n(-c3c(C)ccnc3C(C)C)c3nc(-c4c(O)cccc4F)c(F)cc23)C(C)C1 (stereo not given) + Cc1nc(NC(=O)N2CCCC2C(N)=O)sc1-c1ccnc(C(C)(C)C(F)(F)F)c1 , output reported viability, T/C.
// result 95.2

// query Input C[C@@H](NC(=O)c1ncnc(N)c1Cl)c1ncc(C(=O)Nc2cc(C(F)(F)F)c(Cl)cn2)s1 + COc1c(OCCCN2CCOCC2)ccc2c3n(c(=NC(=O)c4cnc(N)nc4)nc12)CCN3 , output reported viability, T/C.
// result 36.2

// query Input C#Cc1c(F)ccc2cc(O)cc(-c3ncc4c(N5CC6CCC(C5)N6)nc(OCC56CCCN5CC(F)C6)nc4c3F)c12 (stereo not given) + Cc1nc(NC(=O)N2CCCC2C(N)=O)sc1-c1ccnc(C(C)(C)C(F)(F)F)c1 , output reported viability, T/C.
// result 55

// query Input CCCS(=O)(=O)Nc1ccc(F)c(C(=O)c2c[nH]c3ncc(-c4ccc(Cl)cc4)cc23)c1F + Cc1nc(NC(=O)N2CCCC2C(N)=O)sc1-c1ccnc(C(C)(C)C(F)(F)F)c1 , output reported viability, T/C.
// result 84.8

// query Input CC(C)NCC(C(=O)N1CCN(c2ncnc3c2C(C)CC3O)CC1)c1ccc(Cl)cc1 (stereo not given) + CC(Nc1ccc2c(c1)OCCn1cc(N3C(=O)OCC3C(F)F)nc1-2)C(N)=O , output reported viability, T/C.
// result 81.2

// query Input C[C@@H](NC(=O)c1ncnc(N)c1Cl)c1ncc(C(=O)Nc2cc(C(F)(F)F)c(Cl)cn2)s1 + CC(Nc1ccc2c(c1)OCCn1cc(N3C(=O)OCC3C(F)F)nc1-2)C(N)=O , output reported viability, T/C.
// result 87.6

// query Input Cn1ncnc1[C@H]1c2n[nH]c(=O)c3cc(F)cc(c23)N[C@@H]1c1ccc(F)cc1 + CC(Nc1ncnc2nc[nH]c12)c1cc2cccc(Cl)c2c(=O)n1-c1ccccc1 , output reported viability, T/C.
// result 89.8

// query Input CC(Cn1ccc(-c2ccc(C#N)c(Cl)c2)n1)NC(=O)c1cc(C(C)O)[nH]n1 (stereo not given) + CC(Nc1ccc2c(c1)OCCn1cc(N3C(=O)OCC3C(F)F)nc1-2)C(N)=O , output reported viability, T/C.
// result 73.2

* * *

# System: 996289-038-R-J1-PDC spheroid viability
# Assay Procedure: Anticancer human tumor 996289-038-R-J1-PDC cell line growth inhibition [PI3K];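 further: luminescence used as a proxy for viable cell amount; spheroids exposed to compounds for seven days before viability read; percent viability relative to DMSO vehicle control as 100%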
# Stated Conditions: second compound 1 µM; first compound 10 µM; active compounds read low; spheroids with HUVEC and MSC
Parameter Measured: viability, T/C (%)
Just the number please, in %, no unit attached.

Molecule	viability, T/C / %
Cn1nccc1Nc1nccc(-c2ccn(C(CO)c3ccc(Cl)c(F)c3)c(=O)c2)n1 (stereo not given) + CC(Nc1ncnc2nc[nH]c12)c1cc2cccc(Cl)c2c(=O)n1-c1ccccc1	46.1

// query Input Cn1ncc(Cl)c1-c1cc(C(=O)NC(CN)Cc2cccc(F)c2)sc1Cl (stereo not given) + COc1c(OCCCN2CCOCC2)ccc2c3n(c(=NC(=O)c4cnc(N)nc4)nc12)CCN3 , output reported viability, T/C.
// result 11

// query Input CC1(C)CCC(CN2CCN(c3ccc(C(=O)NS(=O)(=O)c4ccc(NCC5CCOCC5)c([N+](=O)[O-])c4)c(Oc4cnc5[nH]ccc5c4)c3)CC2)=C(c2ccc(Cl)cc2)C1 + CC(Nc1ccc2c(c1)OCCn1cc(N3C(=O)OCC3C(F)F)nc1-2)C(N)=O , output reported viability, T/C.
// result 25.9

// query Input CC(C)NCC(C(=O)N1CCN(c2ncnc3c2C(C)CC3O)CC1)c1ccc(Cl)cc1 (stereo not given) + CC(Nc1ccc2c(c1)OCCn1cc(N3C(=O)OCC3C(F)F)nc1-2)C(N)=O , output reported viability, T/C.
// result 53.5

// query Input CC1(C)CCC(CN2CCN(c3ccc(C(=O)NS(=O)(=O)c4ccc(NCC5CCOCC5)c([N+](=O)[O-])c4)c(Oc4cnc5[nH]ccc5c4)c3)CC2)=C(c2ccc(Cl)cc2)C1 + CC(Nc1ncnc2nc[nH]c12)c1cc2cccc(Cl)c2c(=O)n1-c1ccccc1 , output reported viability, T/C.
// result 63.1

* * *

# Test system: 996289-038-R-J1-PDC spheroid viability
# Assay Procedure: Anticancer human tumor 996289-038-R-J1-PDC cell line growth inhibition [PI3K];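 further: luminescence used as a proxy for viable cell amount; spheroids exposed to compounds for seven days before viability read; percent viability relative to DMSO vehicle control as 100%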
# Stated Conditions: second compound 0.1 µM; first compound 0.01 µM; active compounds read low; spheroids with HUVEC and MSC
# if measured viability, T/C < 80%: met  # else: not met

Some entries whose results are on file:
                                   compound  assigned_class
0  Cn1ncnc1[C@H]1c2n[nH]c(=O)c3cc(F)cc(c23)N[C@@H]1c1ccc(F)cc1 + CC(Nc1ncnc2nc[nH]c12)c1cc2cccc(Cl)c2c(=O)n1-c1ccccc1         not met
1  CC(C)n1nc(-c2ccc3oc(N)nc3c2)c2c(N)ncnc21 + Cc1nc(NC(=O)N2CCCC2C(N)=O)sc1-c1ccnc(C(C)(C)C(F)(F)F)c1             met

// query Just wondering, is viability, T/C of Cn1ncnc1[C@H]1c2n[nH]c(=O)c3cc(F)cc(c23)N[C@@H]1c1ccc(F)cc1 + Cc1nc(NC(=O)N2CCCC2C(N)=O)sc1-c1ccnc(C(C)(C)C(F)(F)F)c1 below 80%?
// result not met

// query Just wondering, is viability, T/C of Cn1ncnc1[C@H]1c2n[nH]c(=O)c3cc(F)cc(c23)N[C@@H]1c1ccc(F)cc1 + CC(Nc1ccc2c(c1)OCCn1cc(N3C(=O)OCC3C(F)F)nc1-2)C(N)=O below 80%?
// result not met

// query Just wondering, is viability, T/C of CC(C)n1nc(-c2ccc3oc(N)nc3c2)c2c(N)ncnc21 + CC(Nc1ccc2c(c1)OCCn1cc(N3C(=O)OCC3C(F)F)nc1-2)C(N)=O below 80%?
// result met
